test system: L1 wild-type C. elegans; experiment: microbe, parasite or virus in culture; conditions: Caenorhabditis elegans, read-out: C. elegans KCN Survival Assay LC50, estimated from fitted dose-response curves; mean of at least two biological replicates
Examples of molecules with documented LC50 follow.
Metric: LC50 (µM)

{"Molecule": "Cc1ccc(OCCn2cnc3ccccc32)c(C)c1", "Measured Result": 12}
{"Molecule": "Cc1ccc(CSCc2nc3ccccc3[nH]2)cc1", "Measured Result": 9.79}
{"Molecule": "Cc1cccc(OCCn2c(C)nc3ccccc32)c1", "Measured Result": 14.7}
{"Molecule": "c1ccc(-c2noc(CCCCc3nc4ccccc4[nH]3)n2)cc1", "Measured Result": 19.4}
{"Molecule": "Cc1nc2ccccc2n1CCOc1ccccc1", "Measured Result": 32.9}
{"Molecule": "CCn1c(C(C)c2ccc(CC(C)C)cc2)nc2ccccc21 (stereo not drawn)", "Measured Result": 8.7}
{"Molecule": "CCCn1c(COc2ccc(C)cc2)nc2ccccc21", "Measured Result": 10.6}
{"Molecule": "Cc1ccc(OCCn2cnc3ccccc32)cc1", "Measured Result": 28.3}
{"Molecule": "Cc1ccc(Cn2c(C)nc3ccccc32)cc1", "Measured Result": 7.24}
{"Molecule": "CCn1c(/C=C/c2ccc(F)cc2)nc2ccccc21", "Measured Result": 14.4}
{"Molecule": "Cc1ccc(C(C)C)c(OCC(O)Cn2cnc3ccccc32)c1 (stereo not drawn)", "Measured Result": 19.8}
{"Molecule": "Cc1nc2ccccc2n1Cc1ccc(C(C)(C)C)cc1", "Measured Result": 11}
{"Molecule": "Cc1nc2ccccc2n1Cc1ccc(Cl)c(Cl)c1", "Measured Result": 8.26}
{"Molecule": "Brc1ccc(Cn2cnc3ccccc32)cc1", "Measured Result": 7.75}
{"Molecule": "FC(F)(F)c1cccc(OCCCCn2cnc3ccccc32)c1", "Measured Result": 13.9}
{"Molecule": "Clc1ccc(SCCCCn2cnc3ccccc32)cc1", "Measured Result": 6.74}
{"Molecule": "CCCOc1ccc(Cn2cnc3ccccc32)cc1", "Measured Result": 7}
{"Molecule": "Clc1ccccc1OCCCCn1cnc2ccccc21", "Measured Result": 6.97}
{"Molecule": "C=CCn1c(-c2ccc(N(C)C)cc2)nc2ccccc21", "Measured Result": 5.19}
{"Molecule": "Cc1ccc2nc(C(C)c3ccc(CC(C)C)cc3)[nH]c2c1 (stereo not drawn)", "Measured Result": 6.76}
{"Molecule": "Clc1ccc(Cn2cnc3ccccc32)cc1Cl", "Measured Result": 13.1}
